Tested System: GRP78 (Homo sapiens, UniProt P11021)
Sequence (P11021 26-636): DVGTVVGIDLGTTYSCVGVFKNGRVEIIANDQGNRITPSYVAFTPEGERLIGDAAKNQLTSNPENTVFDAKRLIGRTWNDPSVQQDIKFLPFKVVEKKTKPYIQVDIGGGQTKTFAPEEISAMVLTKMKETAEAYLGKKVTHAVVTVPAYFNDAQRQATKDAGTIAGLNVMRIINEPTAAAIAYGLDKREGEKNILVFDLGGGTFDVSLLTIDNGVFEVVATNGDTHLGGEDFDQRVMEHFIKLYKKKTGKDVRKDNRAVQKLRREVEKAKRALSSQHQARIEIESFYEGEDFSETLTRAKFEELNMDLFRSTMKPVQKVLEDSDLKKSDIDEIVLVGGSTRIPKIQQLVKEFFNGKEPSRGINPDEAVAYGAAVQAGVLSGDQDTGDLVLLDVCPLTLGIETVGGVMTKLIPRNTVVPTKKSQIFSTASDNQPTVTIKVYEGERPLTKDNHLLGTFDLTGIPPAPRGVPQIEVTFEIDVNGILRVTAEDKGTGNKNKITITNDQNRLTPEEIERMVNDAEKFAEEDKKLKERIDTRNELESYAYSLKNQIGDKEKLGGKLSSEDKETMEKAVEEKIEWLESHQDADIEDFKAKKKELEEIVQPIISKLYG
Procedure Summary: Fluorescence polarization FITC-NRLLLTG peptide
Stated Conditions: peptide binding assay, 8-point dose responses

{"Compound Structure": "CCc1cc(Cc2cc(CC)cc(C(C)(C)C)c2O)c(O)c(C(C)(C)C)c1", "Tested System": "GRP78 (Homo sapiens, UniProt P11021)", "GRP78 inhibition, SAR result in words": "not tolerated"}
{"Compound Structure": "Oc1ccc(Cl)cc1Cc1cc(Cl)ccc1O", "Tested System": "GRP78 (Homo sapiens, UniProt P11021)", "GRP78 inhibition, SAR result in words": "inactive"}
{"Compound Structure": "Oc1ccccc1Cc1ccccc1O", "Tested System": "GRP78 (Homo sapiens, UniProt P11021)", "GRP78 inhibition, SAR result in words": "inactive"}
{"Compound Structure": "O=C(Nc1cc(Cl)cc(Cl)c1O)c1c(O)c(Cl)cc(Cl)c1Cl", "Tested System": "GRP78 (Homo sapiens, UniProt P11021)", "GRP78 inhibition, SAR result in words": "not tolerated"}
{"Compound Structure": "Cc1cc(Cc2cc(C)cc(C(C)(C)C)c2O)c(O)c(C(C)(C)C)c1", "Tested System": "GRP78 (Homo sapiens, UniProt P11021)", "GRP78 inhibition, SAR result in words": "not tolerated"}
{"Compound Structure": "Oc1cc(Cl)ccc1Oc1ccc(Cl)cc1Cl", "Tested System": "GRP78 (Homo sapiens, UniProt P11021)", "GRP78 inhibition, SAR result in words": "not tolerated"}
